- experimental_system: human κ (CHO-KOR) opioid receptor (Homo sapiens)
- Construct: expressed in transfected cells
- Sequence (P41145 whole entry): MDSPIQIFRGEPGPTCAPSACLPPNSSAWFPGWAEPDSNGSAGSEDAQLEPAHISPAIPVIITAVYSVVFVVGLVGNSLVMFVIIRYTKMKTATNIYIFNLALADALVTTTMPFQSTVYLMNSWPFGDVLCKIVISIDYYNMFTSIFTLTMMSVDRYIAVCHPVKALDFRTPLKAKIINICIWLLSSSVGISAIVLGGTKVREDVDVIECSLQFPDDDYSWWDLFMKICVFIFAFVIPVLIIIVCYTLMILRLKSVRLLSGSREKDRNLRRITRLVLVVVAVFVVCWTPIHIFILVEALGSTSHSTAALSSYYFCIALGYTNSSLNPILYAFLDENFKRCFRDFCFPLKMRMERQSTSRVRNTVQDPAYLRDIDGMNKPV
- assay_notes: Stimulation of [35S]GTPγS binding, KOR
- Assay type: biochemical
- setup_conditions: [35S]GTPγS maximal stimulation compared with 10 μM standard U-69,593
endpoint_label: Emax (%)
Quick reminder: number only, in %, skip the unit.

Example cases with answers are listed next.
>>> print(df.to_string())
                                   molecule                       experimental_system  endpoint_label  display_unit  observed
0  Cc1cc(O)cc(C)c1C[C@H](N)C(=O)N[C@H]1c2cc(Cc3ccccc3)ccc2NC[C@H]1C  human κ (CHO-KOR) opioid receptor (Homo sapiens)            Emax             %      26.4
1  Cc1cc(O)cc(C)c1C[C@H](N)C(=O)N[C@@H]1CCC(C)(C)c2ccc(Cc3ccccc3)cc21  human κ (CHO-KOR) opioid receptor (Homo sapiens)            Emax             %      77.8
2  Cc1cc(O)cc(C)c1C[C@H](N)C(=O)N[C@H]1CCOc2ccc(Cc3ccccc3)cc21  human κ (CHO-KOR) opioid receptor (Homo sapiens)            Emax             %    -0.061

Q. Missing value: Emax, human κ (CHO-KOR) opioid receptor (Homo sapiens), entry COc1cc(Cc2ccccc2)cc2c1N(C(C)=O)CC[C@H]2NC(=O)[C@@H](N)Cc1c(C)cc(O)cc1C . Fill in?
A. 16.1

Q. Subsequent entry: Cc1cc(O)cc(C)c1C[C@H](N)C(=O)N[C@@H]1CCNc2c1cc(Cc1ccccc1)cc2C(F)(F)F
A. 17

Q. Subsequent entry: Cc1cc(O)cc(C)c1C[C@H](N)C(=O)N(C)[C@H]1CCNc2ccc(Cc3ccccc3)cc21
A. 8.3

Q. Try this molecule next: CC(=O)N1CC[C@@H](NC(=O)[C@@H](N)Cc2c(C)cc(O)cc2C)c2cc(-c3ccccc3)ccc21
A. 69.1

Q. Likewise for Cc1cc(O)cc(C)c1C[C@H](N)C(=O)N[C@@H]1CCN(C)c2ccc(Cc3ccccc3)cc21 ?
A. 44

Q. // next record Cc1cc(O)cc(C)c1C[C@H](N)C(=O)NC1CCNc2ccc(Oc3ccccc3)cc21 (stereo partly shown)
A. 23.6

Q. Entry Cc1cc(O)cc(C)c1C[C@H](N)C(=O)N(C1CC1)C1CCNc2ccc(Cc3ccccc3)cc21 (stereo partly shown) please
A. -0.01

From: patent US10519114B2
